molecular target: panel of 442 kinases (Homo sapiens); construct: purchased Ambit Biosciences (scanMAXX KINOMEscan); experiment: biochemical; type: binding; settings: kinase NEK5; 1 µM; read-out: % of control at 1 µM
metricName: remaining activity at 1 µM

- sampleSmiles: "COc1ncc(-c2ccc3nccc(-c4ccnnc4)c3c2)cc1NS(=O)(=O)c1ccc(F)cc1F"
  remaining activity at 1 µM: "100%"
- sampleSmiles: "Nc1cc(C(F)(F)F)c(-c2cc(N3CCOCC3)nc(N3CCOCC3)n2)cn1"
  remaining activity at 1 µM: "100%"

I am curious: what remaining activity at 1 µM value has been reported for Cn1c(=O)n(-c2ccc(C(C)(C)C#N)cc2)c2c3cc(-c4cnc5ccccc5c4)ccc3ncc21 ?
62%

I am curious: what remaining activity at 1 µM value has been reported for FC(F)c1nc2ccccc2n1-c1nc(N2CCOCC2)nc(N2CCOCC2)n1 ?
89%

###

molecular target: panel of 442 kinases (Homo sapiens, UniProt Q9BXA7); construct: purchased Ambit Biosciences (scanMAXX KINOMEscan); assay: biochemical; type: binding; settings: kinase TSSK1B; 1 µM; read-out: TSSK1B (% of control at 1 µM)
Sequence (Q9BXA7 whole entry): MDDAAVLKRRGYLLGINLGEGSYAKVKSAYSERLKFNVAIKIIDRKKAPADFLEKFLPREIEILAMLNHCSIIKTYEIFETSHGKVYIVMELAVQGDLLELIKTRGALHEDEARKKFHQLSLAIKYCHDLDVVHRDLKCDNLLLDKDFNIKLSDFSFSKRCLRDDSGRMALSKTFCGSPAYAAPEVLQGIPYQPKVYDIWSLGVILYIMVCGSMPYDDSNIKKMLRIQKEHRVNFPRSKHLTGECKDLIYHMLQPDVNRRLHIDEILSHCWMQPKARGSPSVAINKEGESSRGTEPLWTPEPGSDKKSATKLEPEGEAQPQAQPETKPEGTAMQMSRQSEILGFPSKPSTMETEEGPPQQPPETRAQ
metricName: remaining activity at 1 µM (%)
Kindly provide the numeric value in % only, without the unit symbol.

Example entries begin here.
- sampleSmiles: "FC(F)c1nc2ccccc2n1-c1nc(N2CCOCC2)nc(N2CCOCC2)n1"
  remaining activity at 1 µM, %: 76
- sampleSmiles: "COc1ncc(-c2ccc3nccc(-c4ccnnc4)c3c2)cc1NS(=O)(=O)c1ccc(F)cc1F"
  remaining activity at 1 µM, %: 100
- sampleSmiles: "Nc1cc(C(F)(F)F)c(-c2cc(N3CCOCC3)nc(N3CCOCC3)n2)cn1"
  remaining activity at 1 µM, %: 97

Here is the next item to consider.
I am curious: what remaining activity at 1 µM value has been reported for Cn1c(=O)n(-c2ccc(C(C)(C)C#N)cc2)c2c3cc(-c4cnc5ccccc5c4)ccc3ncc21 ?
98

###

molecular target: panel of 442 kinases (Homo sapiens, UniProt P00519, H396P); construct: purchased Ambit Biosciences (scanMAXX KINOMEscan); experiment: biochemical; assay type: binding; details: ABL1(H396P)-phosphorylated; 1 µM; read-out: % of control at 1 µM
metricName: remaining activity at 1 µM (%)
Kindly provide the numeric value in % only, without the unit symbol.

I am curious: what remaining activity at 1 µM value has been reported for Cn1c(=O)n(-c2ccc(C(C)(C)C#N)cc2)c2c3cc(-c4cnc5ccccc5c4)ccc3ncc21 [Dactolisib] ?
79

I am curious: what remaining activity at 1 µM value has been reported for Nc1cc(C(F)(F)F)c(-c2cc(N3CCOCC3)nc(N3CCOCC3)n2)cn1 [Buparlisib] ?
96

I am curious: what remaining activity at 1 µM value has been reported for COc1ncc(-c2ccc3nccc(-c4ccnnc4)c3c2)cc1NS(=O)(=O)c1ccc(F)cc1F [Omipalisib] ?
100

I am curious: what remaining activity at 1 µM value has been reported for FC(F)c1nc2ccccc2n1-c1nc(N2CCOCC2)nc(N2CCOCC2)n1 [ZSTK474] ?
100

###

molecular target: panel of 442 kinases (Homo sapiens); construct: purchased Ambit Biosciences (scanMAXX KINOMEscan); experiment: biochemical; format: binding; conditions: kinase LATS2; 1 µM; read-out: % of control at 1 µM
metricName: remaining activity at 1 µM (%)
Kindly provide the numeric value in % only, without the unit symbol.

Example entries begin here.
- molecule: "COc1ncc(-c2ccc3nccc(-c4ccnnc4)c3c2)cc1NS(=O)(=O)c1ccc(F)cc1F [Omipalisib]"
  metricName: "remaining activity at 1 µM"
  valueMeasured: 100
- molecule: "Nc1cc(C(F)(F)F)c(-c2cc(N3CCOCC3)nc(N3CCOCC3)n2)cn1 [Buparlisib]"
  metricName: "remaining activity at 1 µM"
  valueMeasured: 75
- molecule: "Cn1c(=O)n(-c2ccc(C(C)(C)C#N)cc2)c2c3cc(-c4cnc5ccccc5c4)ccc3ncc21 [Dactolisib]"
  metricName: "remaining activity at 1 µM"
  valueMeasured: 100

I am curious: what remaining activity at 1 µM value has been reported for FC(F)c1nc2ccccc2n1-c1nc(N2CCOCC2)nc(N2CCOCC2)n1 [ZSTK474] ?
100

###

biological target: panel of 442 kinases (Homo sapiens, UniProt P50613); construct: purchased Ambit Biosciences (scanMAXX KINOMEscan); assay: biochemical; type: binding; details: CDK7; 1 µM; read-out: % of control at 1 µM
Sequence (P50613 whole entry): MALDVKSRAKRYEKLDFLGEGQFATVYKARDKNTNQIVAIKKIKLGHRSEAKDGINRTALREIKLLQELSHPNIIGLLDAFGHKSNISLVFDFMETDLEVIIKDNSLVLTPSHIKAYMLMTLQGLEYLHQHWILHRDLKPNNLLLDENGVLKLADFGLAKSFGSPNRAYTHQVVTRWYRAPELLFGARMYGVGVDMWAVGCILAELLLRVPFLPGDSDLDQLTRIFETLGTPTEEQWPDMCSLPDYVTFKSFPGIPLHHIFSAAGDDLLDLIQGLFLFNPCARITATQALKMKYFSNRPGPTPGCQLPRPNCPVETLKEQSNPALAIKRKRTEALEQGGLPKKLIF
metricName: remaining activity at 1 µM (%)
Kindly provide the numeric value in % only, without the unit symbol.

Example entries begin here.
- sampleSmiles: "Nc1cc(C(F)(F)F)c(-c2cc(N3CCOCC3)nc(N3CCOCC3)n2)cn1"
  metricName: "remaining activity at 1 µM"
  valueMeasured: 93
- sampleSmiles: "Cn1c(=O)n(-c2ccc(C(C)(C)C#N)cc2)c2c3cc(-c4cnc5ccccc5c4)ccc3ncc21"
  metricName: "remaining activity at 1 µM"
  valueMeasured: 57
- sampleSmiles: "COc1ncc(-c2ccc3nccc(-c4ccnnc4)c3c2)cc1NS(=O)(=O)c1ccc(F)cc1F"
  metricName: "remaining activity at 1 µM"
  valueMeasured: 100

Here is the next item to consider.
I am curious: what remaining activity at 1 µM value has been reported for FC(F)c1nc2ccccc2n1-c1nc(N2CCOCC2)nc(N2CCOCC2)n1 ?
68

###

target: panel of 442 kinases (Homo sapiens, UniProt Q15569); construct: purchased Ambit Biosciences (scanMAXX KINOMEscan); assay: biochemical; type: binding; settings: kinase TESK1; 1 µM; read-out: TESK1 (% of control at 1 µM)
Sequence (Q15569 whole entry): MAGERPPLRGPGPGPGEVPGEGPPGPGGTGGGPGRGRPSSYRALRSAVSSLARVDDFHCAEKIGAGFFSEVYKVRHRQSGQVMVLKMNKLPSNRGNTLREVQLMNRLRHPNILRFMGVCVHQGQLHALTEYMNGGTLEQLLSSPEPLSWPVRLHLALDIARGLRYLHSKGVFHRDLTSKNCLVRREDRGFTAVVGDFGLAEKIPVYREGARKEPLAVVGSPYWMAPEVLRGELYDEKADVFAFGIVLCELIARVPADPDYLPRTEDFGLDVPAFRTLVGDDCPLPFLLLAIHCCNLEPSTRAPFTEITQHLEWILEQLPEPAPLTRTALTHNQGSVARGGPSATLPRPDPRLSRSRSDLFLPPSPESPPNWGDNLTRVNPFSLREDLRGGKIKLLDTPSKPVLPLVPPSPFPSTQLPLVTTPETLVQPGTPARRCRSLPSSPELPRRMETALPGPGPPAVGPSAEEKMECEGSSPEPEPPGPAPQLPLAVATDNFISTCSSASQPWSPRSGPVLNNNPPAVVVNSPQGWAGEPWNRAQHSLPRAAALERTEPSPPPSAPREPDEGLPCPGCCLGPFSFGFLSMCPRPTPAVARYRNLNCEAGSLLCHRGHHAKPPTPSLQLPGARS
metricName: remaining activity at 1 µM (%)
Kindly provide the numeric value in % only, without the unit symbol.

- sampleSmiles: "Nc1cc(C(F)(F)F)c(-c2cc(N3CCOCC3)nc(N3CCOCC3)n2)cn1"
  remaining activity at 1 µM, %: 92

I am curious: what remaining activity at 1 µM value has been reported for Cn1c(=O)n(-c2ccc(C(C)(C)C#N)cc2)c2c3cc(-c4cnc5ccccc5c4)ccc3ncc21 ?
100

I am curious: what remaining activity at 1 µM value has been reported for FC(F)c1nc2ccccc2n1-c1nc(N2CCOCC2)nc(N2CCOCC2)n1 ?
96

I am curious: what remaining activity at 1 µM value has been reported for COc1ncc(-c2ccc3nccc(-c4ccnnc4)c3c2)cc1NS(=O)(=O)c1ccc(F)cc1F ?
73

###

biological target: panel of 442 kinases (Homo sapiens); construct: purchased Ambit Biosciences (scanMAXX KINOMEscan); assay: biochemical; assay type: binding; conditions: kinase MYO3A; 1 µM; read-out: % of control at 1 µM
Entries annotated with measured remaining activity at 1 µM
Kindly provide the numeric value in % only, without the unit symbol.

Example entries begin here.
- sampleSmiles: "FC(F)c1nc2ccccc2n1-c1nc(N2CCOCC2)nc(N2CCOCC2)n1"
  assayedSystem: "panel of 442 kinases (Homo sapiens)"
  remaining activity at 1 µM (%): 99
- sampleSmiles: "COc1ncc(-c2ccc3nccc(-c4ccnnc4)c3c2)cc1NS(=O)(=O)c1ccc(F)cc1F"
  assayedSystem: "panel of 442 kinases (Homo sapiens)"
  remaining activity at 1 µM (%): 100
- sampleSmiles: "Cn1c(=O)n(-c2ccc(C(C)(C)C#N)cc2)c2c3cc(-c4cnc5ccccc5c4)ccc3ncc21"
  assayedSystem: "panel of 442 kinases (Homo sapiens)"
  remaining activity at 1 µM (%): 88

Here is the next item to consider.
I am curious: what remaining activity at 1 µM value has been reported for Nc1cc(C(F)(F)F)c(-c2cc(N3CCOCC3)nc(N3CCOCC3)n2)cn1 ?
90

###

target: panel of 442 kinases (Homo sapiens); construct: purchased Ambit Biosciences (scanMAXX KINOMEscan); assay: biochemical; format: binding; details: kinase SLK; 1 µM; read-out: SLK (% of control at 1 µM)
Entries annotated with measured remaining activity at 1 µM
Kindly provide the numeric value in % only, without the unit symbol.

- sampleSmiles: "Nc1cc(C(F)(F)F)c(-c2cc(N3CCOCC3)nc(N3CCOCC3)n2)cn1"
  unitInfo: "%"
  remaining activity at 1 µM: 100

I am curious: what remaining activity at 1 µM value has been reported for FC(F)c1nc2ccccc2n1-c1nc(N2CCOCC2)nc(N2CCOCC2)n1 ?
100

I am curious: what remaining activity at 1 µM value has been reported for COc1ncc(-c2ccc3nccc(-c4ccnnc4)c3c2)cc1NS(=O)(=O)c1ccc(F)cc1F ?
100

I am curious: what remaining activity at 1 µM value has been reported for Cn1c(=O)n(-c2ccc(C(C)(C)C#N)cc2)c2c3cc(-c4cnc5ccccc5c4)ccc3ncc21 ?
89

###

target: panel of 442 kinases (Homo sapiens); construct: purchased Ambit Biosciences (scanMAXX KINOMEscan); experiment: biochemical; assay type: binding; conditions: kinase RSK1(Kin.Dom.2-C-terminal); 1 µM; read-out: RSK1(Kin.Dom.2-C-terminal) (% of control at 1 µM)
metricName: remaining activity at 1 µM
The answer consists of two parts: a number and, after it, its unit.

- sampleSmiles: "Cn1c(=O)n(-c2ccc(C(C)(C)C#N)cc2)c2c3cc(-c4cnc5ccccc5c4)ccc3ncc21"
  remaining activity at 1 µM: "61%"
- sampleSmiles: "COc1ncc(-c2ccc3nccc(-c4ccnnc4)c3c2)cc1NS(=O)(=O)c1ccc(F)cc1F"
  remaining activity at 1 µM: "95%"
- sampleSmiles: "Nc1cc(C(F)(F)F)c(-c2cc(N3CCOCC3)nc(N3CCOCC3)n2)cn1"
  remaining activity at 1 µM: "97%"

Here is the next item to consider.
What measured remaining activity at 1 µM is associated with FC(F)c1nc2ccccc2n1-c1nc(N2CCOCC2)nc(N2CCOCC2)n1 on panel of 442 kinases (Homo sapiens)?
83%
